System: CP329
test details: qHTS profiling for inhibitors of Plasmodium falciparum proliferation (AID 504749); further: nearly all actives have a fitted effect of over 60% in size
condition parameters: P. falciparum in erythrocytes, SYBR Green DNA, 72 h; series mostly up to 28.7 µM
Experimental: NIH National Institute of Allergy and Infectious Diseases [NIAID] NIH Chemical Genomics Center [NCGC] […] Because mature erythrocytes lack DNA, only Plasmodium-derived DNA is detected. NCGC Assay Protocol Summary: The SYBR Green viability assay was adapted from a method described previously (Plouffe et al., 2008). […] The following morning, fluorescence intensity at 485(14) nm excitation and 535(25) nm emission wavelengths was measured on an EnVision (Perkin Elmer) plate reader. […]
Records with an inconclusive call do not appear. Active and inactive are the calls of the source. The call rests on the fitted dose curve; in most records, active means well fitted inhibition curve with a large enough effect; inconclusive means small, poorly fitted or top-dose-only effect; inactive means flat fitted curve, though single readings scatter.
In this exercise, the only acceptable responses are T for active, F for inactive

Sample answers from the record:
> print(dat)
                                   compound  system  classification
1                   CCCCCCCCCCCCCCCCCCCCCCO   CP329               F
2                     Nc1ccc(S(N)(=O)=O)cc1   CP329               F
3                     Oc1ccc(OCc2ccccc2)cc1   CP329               F
4  Cc1nc2n(c(=O)c1CCN1CCC(c3noc4cc(F)ccc34)CC1)CCCC2   CP329               F
5  O=C1CCc2ccc(OCCCCN3CCN(c4cccc(Cl)c4Cl)CC3)cc2N1   CP329               F

Now consider the entry below.
Which outcome was assigned to O=C(OC1C[C@H]2CC[C@@H](C1)[N+]21CCCC1)C(O)(c1ccccc1)c1ccccc1 (stereo partly specified) in this test?
T

----------
test details: qHTS of pediatric cancer cell lines to identify multiple opportunities for drug repurposing: Primary screen for Rh41 cells (AID 1347108);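 further: luminescence drop marks cytotoxic hits; nearly all actives have a fitted effect of over 70% in size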
condition parameters: Rh41 rhabdomyosarcoma viability, CellTiter-Glo luminescence, 48 h; series mostly up to 46 µM
Inconclusive results are not listed. Activity calls are given as the source filed them. The call rests on the fitted dose curve; in most records, active means well fitted cell-killing curve with a large enough effect; inconclusive means small, poorly fitted or top-dose-only effect; inactive means no such curve, though single readings can be large or run the other way.
Log the outcome using a class from 1.0 (active), 0.0 (inactive)

Which result was noted for this compound in the test: Cn1c(NCCN(CCO)CCCc2ccc([N+](=O)[O-])cc2)cc(=O)n(C)c1=O
0.0

----------
system: Luciferin 4-monooxygenase (Photinus pyralis)
test details: Biochemical firefly luciferase enzyme assay for NPC (AID 624030); further: nearly all actives have a fitted effect of over 70% in size
condition parameters: purified P. pyralis luciferase, luminescence, 5 min; series mostly up to 58.6 µM
Inconclusive results are not listed. Calls of active or inactive are those of the source. Calls follow the shape of the dose curve; as a rule, active = well fitted inhibition curve with a large enough effect; inconclusive = small, poorly fitted or top-dose-only effect; inactive = flat fitted curve, though single readings scatter.
Lab note: assign the record to one of True = active, False = inactive

Example results:
> print(dat)
                                   compound  classification
1  CN(C)C(=O)COC(=O)Cc1ccc(OC(=O)c2ccc(N=C(N)N)cc2)cc1           False
2       Cc1cc2c(s1)Nc1ccccc1N=C2N1CCN(C)CC1           False
3  CCCCC(CC)COC(=O)C(C#N)=C(c1ccccc1)c1ccccc1 (stereo not given)           False
4  CC(C)[N+]1(C)[C@@H]2CC[C@H]1CC(OC(=O)C(CO)c1ccccc1)C2 (stereo not given in full)           False
5  CC1(C)NC(=O)N(c2ccc([N+](=O)[O-])c(C(F)(F)F)c2)C1=O           False
6  Cn1c(NCCN(CCO)CCCc2ccc([N+](=O)[O-])cc2)cc(=O)n(C)c1=O           False
7  N=C(N)c1ccc2cc(OC(=O)c3ccc(N=C(N)N)cc3)ccc2c1           False
8      O=C(O)c1cccc(-c2noc(-c3ccccc3F)n2)c1            True
9          O=P(O)(O)C(O)(Cn1ccnc1)P(=O)(O)O           False

Then there is this compound:
Would you mind telling me which call this test gave CCCCCCCCOc1ccccc1C(=O)Nc1ccc(C(=O)OCC[N+](C)(CC)CC)cc1 ?
False

----------
test details: P-glycoprotein substrates identified in KB-8-5-11 adenocarcinoma cell line, qHTS therapeutic library screen (AID 1346987); further: nearly all actives have a fitted effect of over 65% in size
condition parameters: KB-8-5-11 (P-gp overexpressing) viability, CellTiter-Glo, 72 h; series mostly up to 44.5 µM
Records with an inconclusive call do not appear. The source made the active and inactive calls. Calls come from the whole dose curve; as a rule, active = well fitted inhibition curve with a large enough effect; inconclusive = small, poorly fitted or top-dose-only effect; inactive = flat fitted curve, though single readings scatter. Peptide text beside a SMILES is read from it.
Select the correct class. Options are YES (active), NO (inactive) and nothing else.

Recorded results for 10 compounds are shown here.
> print(dat)
                                    compound  classification
 1  COC(=O)[C@H](Cc1ccccc1)NC(=O)[C@@H](N)CC(=O)O (H-Asp-Phe-OMe)              NO
 2          O=P(O)(O)C(O)(Cn1ccnc1)P(=O)(O)O              NO
 3  C=C(c1ccc(C(=O)O)cc1)c1cc2c(cc1C)C(C)(C)CCC2(C)C              NO
 4  CC(C)[N+]1(C)[C@@H]2CC[C@H]1CC(OC(=O)C(CO)c1ccccc1)C2 (some centres undefined)              NO
 5   NS(=O)(=O)c1cc(C(=O)O)c(NCc2ccco2)cc1Cl              NO
 6            CCOC(=O)c1c(C)n(C)c2ccc(O)cc12              NO
 7                    Cc1cc(=O)oc2cc(O)ccc12              NO
 8  Clc1ccc(C(Cn2ccnc2)OCc2ccsc2Cl)c(Cl)c1 (centres undefined)             YES
 9  C[C@]12CCC(=O)C=C1CC[C@@H]1[C@H]2[C@@H](O)C[C@@]2(C)[C@H]1CC[C@]2(O)C(=O)CO              NO
10                    O=c1ccc2ccc(O)c(O)c2o1              NO

Please indicate how the test categorized O=C(O)c1cccc(-c2noc(-c3ccccc3F)n2)c1 .
NO

----------
System: TAB165
test details: qHTS profiling for inhibitors of Plasmodium falciparum proliferation (AID 504749); further: nearly all actives have a fitted effect of over 60% in size
condition parameters: P. falciparum in erythrocytes, SYBR Green DNA, 72 h; series mostly up to 28.7 µM
Results filed as inconclusive are left out. The source made the active and inactive calls. Calls follow the shape of the dose curve; as a rule, active = well fitted inhibition curve with a large enough effect; inconclusive = small, poorly fitted or top-dose-only effect; inactive = flat fitted curve, though single readings scatter.
A correct response names exactly one class from active, inactive

Example results:
> print(dat)
                                   compound  system  classification
1  COC(=O)C1=C(C)NC(C)=C(C(=O)OCCCN2CCC(c3ccccc3)(c3ccccc3)CC2)C1c1cccc([N+](=O)[O-])c1 (centres undefined)  TAB165          active
2  N[C@@H](Cc1cc(I)c(Oc2cc(I)c(O)c(I)c2)c(I)c1)C(=O)O  TAB165        inactive
3  Cc1c(C(=O)NN2CCCCC2)nn(-c2ccc(Cl)cc2Cl)c1-c1ccc(Cl)cc1  TAB165          active
4                 CNC[C@H](O)c1ccc(O)c(O)c1  TAB165        inactive
5            CCCOc1ccc2nc(NC(=O)OC)[nH]c2c1  TAB165        inactive
6  CCC(C)(Oc1ccc(C2(c3ccc(OC(C)(CC)C(=O)O)cc3)CCCCC2)cc1)C(=O)O (centres undefined)  TAB165        inactive
7  O=C(OC1C[C@H]2CC[C@@H](C1)[N+]21CCCC1)C(O)(c1ccccc1)c1ccccc1 (some centres undefined)  TAB165          active
8            CCCCc1ccc2nc(NC(=O)OC)[nH]c2c1  TAB165        inactive

Continue with the next compound.
For C=C(c1ccc(C(=O)O)cc1)c1cc2c(cc1C)C(C)(C)CCC2(C)C , what call appears in the results of this test?
inactive

----------
system: Atrial natriuretic peptide receptor 1 (Homo sapiens) (UniProt P16066)
Sequence (P16066 whole entry, looked up): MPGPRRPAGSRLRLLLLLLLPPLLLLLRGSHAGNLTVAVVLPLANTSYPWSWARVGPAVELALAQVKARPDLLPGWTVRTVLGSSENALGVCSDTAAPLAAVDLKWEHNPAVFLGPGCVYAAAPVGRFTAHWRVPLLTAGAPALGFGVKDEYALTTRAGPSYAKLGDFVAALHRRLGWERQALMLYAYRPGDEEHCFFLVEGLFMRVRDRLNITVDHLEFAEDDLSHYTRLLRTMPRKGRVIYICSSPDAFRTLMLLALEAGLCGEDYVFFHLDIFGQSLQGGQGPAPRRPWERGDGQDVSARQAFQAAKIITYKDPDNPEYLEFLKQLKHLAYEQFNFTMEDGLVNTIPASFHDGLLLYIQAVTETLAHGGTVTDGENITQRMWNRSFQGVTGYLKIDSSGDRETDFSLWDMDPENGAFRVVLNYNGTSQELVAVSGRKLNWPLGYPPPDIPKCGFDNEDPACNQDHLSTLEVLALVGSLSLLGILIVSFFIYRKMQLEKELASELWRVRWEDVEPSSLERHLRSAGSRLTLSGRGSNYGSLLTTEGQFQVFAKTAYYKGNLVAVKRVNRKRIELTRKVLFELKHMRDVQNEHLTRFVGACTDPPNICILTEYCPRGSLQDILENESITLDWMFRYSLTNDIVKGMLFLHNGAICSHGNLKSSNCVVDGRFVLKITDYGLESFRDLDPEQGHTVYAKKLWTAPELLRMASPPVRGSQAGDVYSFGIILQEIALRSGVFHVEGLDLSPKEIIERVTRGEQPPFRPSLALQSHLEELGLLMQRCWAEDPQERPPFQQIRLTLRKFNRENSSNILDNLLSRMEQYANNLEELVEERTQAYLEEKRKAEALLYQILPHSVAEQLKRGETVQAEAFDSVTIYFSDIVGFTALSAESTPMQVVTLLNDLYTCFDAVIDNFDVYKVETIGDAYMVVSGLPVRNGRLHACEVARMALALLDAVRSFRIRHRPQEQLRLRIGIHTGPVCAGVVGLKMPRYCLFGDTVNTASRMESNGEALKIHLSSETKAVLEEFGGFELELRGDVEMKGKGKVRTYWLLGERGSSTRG
test details: Natriuretic polypeptide receptor (hNpr1) antagonism - Pilot screen (AID 1347049);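 further: HEK293 cells with hNpr1 and GloSensor cGMP luciferase stimulated by 0.1 nM hNppA; agonist-evoked cGMP luminescence read 20 min after hNppA addition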
condition parameters: hNpr1 cells, antagonist mode cGMP read-out; series mostly up to 57.5 µM
Inconclusive results are not listed. Activity calls are given as the source filed them. Calls follow the shape of the full dose curve.
# valid calls are True for active, False for inactive; nothing else

For COc1cc2c(cc1OC)C1CC(=O)C(CC(C)C)CN1CC2 (centres undefined) , which call appears in the assay record?
False

Call for entry Nc1ccn([C@@H]2O[C@H](CO)[C@@H](O)C2O)c(=O)n1 (some centres undefined) :
False

Field: outcome | Entry: COc1cc2nc(N3CCN(C(=O)C4CCCO4)CC3)nc(N)c2cc1OC (centres undefined)
False

Called result for COc1ccccc1N1CCN(CCN(C(=O)C2CCCCC2)c2ccccn2)CC1
False

Assay result, entry COc1ccc2cc([C@H](C)C(=O)O)ccc2c1 — outcome?
False

Recorded test call requested for O=c1ccc2ccc(O)c(O)c2o1
False

Could you check what this test reported for CC(C)c1ccc2c(c1)c(SC(C)(C)C)c(CC(C)(C)C(=O)O)n2Cc1ccc(Cl)cc1 ?
False

I'd appreciate the recorded outcome for CN(C)CCCC1(c2ccc(F)cc2)OCc2cc(C#N)ccc21 (centres undefined) from this test.
False

State the result this test recorded for CC1(C)C(=O)N(CCN2CCC(C(=O)c3ccc(F)cc3)CC2)c2ccccc21 .
False

Outcome logged for NNc1nncc2ccccc12 in this assay:
False

Recorded test call requested for CCOC(=O)C(C)Oc1cccc2c(=O)n(CC(=O)Nc3ccc4c(c3)OCCO4)ccc12 (centres undefined)
False

# fetch the recorded call for O=c1cc(N2CCOCC2)oc2c(-c3ccccc3)cccc12 here
False

What is the recorded call for this molecule in the test? O=C1c2c(O)cc(O)cc2OC(c2ccc(O)c(O)c2)C1O (centres undefined)
False

Called result for NCCCCNCCCN
False

Look up the recorded call for NC(=NCc1ccccc1)NC(=O)c1nc(Cl)c(N)nc1N in this test.
False

Tell me the assay call for Cc1cc(O)c2c(c1)C(=O)c1cc(O)cc(O)c1C2=O please.
True

For this molecule, state the assay outcome: O=C(CCc1ccc(O)cc1)c1c(O)cc(O)cc1O
False

What classification did O=C(O)c1cccnc1Nc1cccc(C(F)(F)F)c1 end up with in this test?
False

Entry Nc1nc(OCc2ccccc2)c2[nH]cnc2n1 : call = ?
False

Entry source: PubChem BioAssay (NCATS)
